assay: mouse liver microsomal stability (Microsome Assay Protocol); type: in vitro ADME; conditions: pH 7.4; mouse liver microsomes, NADPH, 37° C.; read-out: MLM t1/2, min
MEASURED METRIC: half-life at 1 µM (min)

INSERT INTO measurements (molecule, experimental_result) VALUES
  ('CN(C)CCCOc1ccc2c(=O)n(CC3(O)CCN(C(=O)C(CCCNC(=O)c4ccc5c(Cl)c(C(=O)NC6CC6)cnc5c4)Cn4ccc(F)n4)CC3)cnc2c1 (stereo not drawn)', 152),
  ('CN(C)CCC(=O)Nc1ccc2c(=O)n(CC3(O)CCN(C(=O)C(CCCC(=O)Nc4ccc5c(Cl)ccnc5c4)Cc4ccccc4)CC3)cnc2c1 (stereo not drawn) [Compound 78]', 14.6),
  ('CN(C)CCC(=O)Nc1ccc2c(=O)n(CC3(O)CCN(C(=O)C(Cc4ccccc4)c4cccc(NC(=O)c5ccc6c(Cl)ccnc6c5)c4)CC3)cnc2c1 (stereo not drawn) [Compound 72]', 29.5),
  ('CN1CCN(CC(=O)Nc2ccc3c(=O)n(CC4(O)CCN(C(=O)C(CCCNC(=O)c5ccc6c(Cl)ccnc6c5)Cc5ccccc5)CC4)cnc3c2)CC1 (stereo not drawn) [Compound 29]', 16.7),
  ('CN(C)CCCOc1ccc2c(=O)n(CC3(O)CCN(C(=O)C(CCCNC(=O)c4ccc5c(Cl)c6c(nc5c4)CCN(C)C6=O)Cc4ccccc4)CC3)cnc2c1 (stereo not drawn)', 14.4),
  ('CN(C)CCCOc1ccc2c(=O)n(CC3(O)CCN(C(=O)C(CCCNC(=O)c4ccc5c(Cl)cc(C6CC6)nc5c4)Cc4ccccc4)CC3)cnc2c1 (stereo not drawn) [Compound 116]', 27.1);

====

target: USP7, Active human recombinant protein (Homo sapiens, UniProt Q93009); construct: purchased CP Lot; 20200225001; assay: USP7 assay (Ubiquitin-Rhodamine 110 enzymatic assay); format: biochemical; conditions: 6 h, read-out: IC50, μM (6 h)
Sequence (Q93009 whole entry): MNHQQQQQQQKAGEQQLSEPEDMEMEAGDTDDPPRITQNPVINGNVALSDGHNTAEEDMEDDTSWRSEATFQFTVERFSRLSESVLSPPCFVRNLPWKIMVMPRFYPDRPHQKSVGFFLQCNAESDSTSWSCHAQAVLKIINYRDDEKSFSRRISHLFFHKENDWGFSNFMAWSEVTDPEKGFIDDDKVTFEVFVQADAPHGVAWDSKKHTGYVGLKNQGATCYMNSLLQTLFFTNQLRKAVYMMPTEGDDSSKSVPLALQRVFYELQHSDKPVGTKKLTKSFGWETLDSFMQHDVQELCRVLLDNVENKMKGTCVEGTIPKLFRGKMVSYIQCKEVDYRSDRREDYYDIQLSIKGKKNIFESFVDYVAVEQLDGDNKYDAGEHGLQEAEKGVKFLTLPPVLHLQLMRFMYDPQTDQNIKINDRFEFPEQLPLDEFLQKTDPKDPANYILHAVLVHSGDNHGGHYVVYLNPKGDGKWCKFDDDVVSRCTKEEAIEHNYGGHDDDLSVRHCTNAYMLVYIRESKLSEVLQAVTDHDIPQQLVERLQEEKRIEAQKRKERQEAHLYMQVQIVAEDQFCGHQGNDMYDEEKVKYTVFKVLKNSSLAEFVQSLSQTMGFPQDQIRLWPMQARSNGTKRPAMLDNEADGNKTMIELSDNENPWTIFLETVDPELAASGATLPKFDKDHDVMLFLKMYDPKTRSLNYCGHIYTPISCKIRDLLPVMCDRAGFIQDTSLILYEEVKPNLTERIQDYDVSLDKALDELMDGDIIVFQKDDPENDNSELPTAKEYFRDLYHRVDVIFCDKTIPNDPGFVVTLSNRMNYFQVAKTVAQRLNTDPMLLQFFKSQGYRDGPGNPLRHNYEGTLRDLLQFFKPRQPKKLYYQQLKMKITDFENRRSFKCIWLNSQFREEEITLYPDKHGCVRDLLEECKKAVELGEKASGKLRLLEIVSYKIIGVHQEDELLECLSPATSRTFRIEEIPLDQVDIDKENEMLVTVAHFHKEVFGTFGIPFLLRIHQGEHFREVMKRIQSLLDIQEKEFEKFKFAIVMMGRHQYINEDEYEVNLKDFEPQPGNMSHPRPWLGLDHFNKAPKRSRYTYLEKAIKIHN
MEASURED METRIC: IC50

INSERT INTO results (compound, subject_of_test, experimental_result) VALUES
  ('C=CC(=O)Nc1ccncc1N1CCC(C(=O)N2CCC(O)(Cn3cnc4cc(NC(=O)CCN5CCN(C)CC5)ccc4c3=O)CC2)C(c2ccccc2)C1 (stereo not shown)', 'USP7, Active human recombinant protein (Homo sapiens, UniProt Q93009)', '< 0.02 µM');

====

assay: mouse liver microsomal stability (Microsome Assay Protocol); format: in vitro ADME; settings: pH 7.4; mouse liver microsomes, NADPH, 37° C.; read-out: MLM t1/2, min
MEASURED METRIC: log10 half-life at 1 µM (log10 of the value in min)

INSERT INTO assay_data (molecule, experimental_result) VALUES
  ('Cc1nc2c(=O)n(CC3(O)CCN(C(=O)C4CCN(CCNC(=O)c5ccc6c(Cl)ccnc6c5)CC4c4ccccc4)CC3)cnc2n1-c1ccc(F)cc1 (stereo not drawn) [Compound 110]', 0.34),
  ('CN(C)CCC(=O)Nc1ccc2c(=O)n(CC3(O)CCN(C(=O)C(CCCNC(=O)c4ccc5c(F)ccnc5c4)Cc4ccccc4)CC3)cnc2c1 (stereo not drawn) [Compound 87]', 1.37),
  ('CN(C)CCCOc1ccc2c(=O)n(CC3(O)CCN(C(=O)[C@H](Cc4ccccc4)N(C)CCNC(=O)c4ccc5c(Cl)c(C(N)=O)cnc5c4)CC3)cnc2c1', 2.00),
  ('CN(C)CC(=O)Nc1ccc2c(=O)n(CC3(O)CCN(C(=O)C(CCCNC(=O)c4ccc5c(Cl)c6c(nc5c4)CCN(C)C6)Cc4ccccc4)CC3)cnc2c1 (stereo not drawn) [Compound 32]', 0.40),
  ('CN1CCN(CCC(=O)Nc2ccc3c(=O)n(CC4(O)CCN(C(=O)[C@@H](CCCNC(=O)c5ccc6c(Cl)cc(-c7ccc(F)cc7)nc6c5)Cc5ccccc5)CC4)cnc3c2)CC1 [Compound 5]', 1.26),
  ('CC(C)c1cc(Cl)c2ccc(C(=O)NCCC[C@H](Cc3ccccc3)C(=O)N3CCC(O)(Cn4cnc5cc(OCCCN(C)C)ccc5c4=O)CC3)cc2n1 [Compound 120]', 0.77);

These entries and their values trace back to patent US20240376076A1.
